# study-target: GlyT1 (Homo sapiens)
# Construct: expressed in transfected cells
# procedure-summary: Glycine Transporter 1 (GlyT1) uptake assay, scintillation proximity assay of [14C]-glycine uptake
# Type: cell-based
# settings: SPA, four parameter logistic fit, read-out: GlyT1 (pIC50) (converted)
measurement-label: IC50

Study these solved cases before continuing.
- compound: "COc1c(C#N)ccc(O[C@@H](C)C(F)(F)F)c1C(=O)N1Cc2cnn(-c3cn(C)c(C)n3)c2C1"
  study-target: "GlyT1 (Homo sapiens)"
  IC50: "100 to 1000 nM"
- compound: "COc1c(C#N)ccc(OC2COC2)c1C(=O)N1Cc2cn(-c3ccc(F)c(C)n3)nc2C1"
  study-target: "GlyT1 (Homo sapiens)"
  IC50: "100 to 1000 nM"
- compound: "N#Cc1ccc(C2(F)CCCC2)c(C(=O)N2CCc3nn(-c4ccccc4)cc3C2)c1F"
  study-target: "GlyT1 (Homo sapiens)"
  IC50: "100 to 1000 nM"
- compound: "C[C@H](Oc1ccc(S(C)(=O)=O)cc1C(=O)N1Cc2cn(-c3ccc(F)c(Cl)c3)nc2C1)C(F)(F)F"
  study-target: "GlyT1 (Homo sapiens)"
  IC50: "< 100 nM"
- compound: "CNC(=O)c1ccc(OC(C)C(F)(F)F)c(C(=O)N2CCc3nn(-c4ccc(F)cc4)cc3C2)c1 (stereo not drawn)"
  study-target: "GlyT1 (Homo sapiens)"
  IC50: "100 to 1000 nM"

Short answer for `CC(C)(C)COc1ccc(S(C)(=O)=O)cc1C(=O)N1Cc2cn(-c3cccc(C(F)(F)F)c3)nc2C1` : IC50 was < 100 nM

Short answer for `CS(=O)(=O)c1ccc(-c2cccc(F)c2)c(C(=O)N2Cc3cn(C4CCOCC4)nc3C2)c1` : IC50 was < 100 nM

Short answer for `CCS(=O)(=O)c1ccc(-c2cccc(F)c2)c(C(=O)N2Cc3cn(-c4ccnc(C)c4)nc3C2)c1` : IC50 was < 100 nM

Short answer for Cc1nn(-c2ccc(F)cc2)c2c1CN(C(=O)c1c(OC(C)C(F)(F)F)ccc(C#N)c1Cl)CC2 (stereo not drawn) : IC50 was 100 to 1000 nM

Short answer for `COc1c(C#N)ccc(O[C@@H](C)C(F)(F)F)c1C(=O)N1Cc2cn(-c3c(C)nn(C)c3C)nc2C1` : IC50 was 100 to 1000 nM

###

Quick reference for IC50 among some compounds
# study-target: GlyT1 (Homo sapiens, UniProt P48067)
# Construct: expressed in transfected cells
# Sequence (P48067 whole entry): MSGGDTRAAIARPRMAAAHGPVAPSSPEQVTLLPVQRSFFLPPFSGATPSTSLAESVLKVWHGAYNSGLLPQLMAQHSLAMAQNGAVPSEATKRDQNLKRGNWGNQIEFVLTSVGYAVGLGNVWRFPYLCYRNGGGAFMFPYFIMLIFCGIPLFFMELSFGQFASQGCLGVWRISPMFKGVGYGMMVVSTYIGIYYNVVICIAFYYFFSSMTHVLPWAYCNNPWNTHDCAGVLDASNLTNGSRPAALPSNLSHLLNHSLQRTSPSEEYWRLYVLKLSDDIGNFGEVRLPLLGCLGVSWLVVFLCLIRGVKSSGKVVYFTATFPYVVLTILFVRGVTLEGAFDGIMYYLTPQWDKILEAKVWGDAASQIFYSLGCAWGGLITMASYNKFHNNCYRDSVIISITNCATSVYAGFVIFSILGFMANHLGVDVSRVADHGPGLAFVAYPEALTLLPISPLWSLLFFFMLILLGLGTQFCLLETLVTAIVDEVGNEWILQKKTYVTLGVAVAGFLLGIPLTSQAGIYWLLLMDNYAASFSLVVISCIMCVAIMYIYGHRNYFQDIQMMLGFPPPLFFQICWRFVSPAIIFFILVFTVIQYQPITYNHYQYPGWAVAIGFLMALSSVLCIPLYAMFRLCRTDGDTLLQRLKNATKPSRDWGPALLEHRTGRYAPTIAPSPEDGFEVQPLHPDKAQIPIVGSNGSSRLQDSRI
# procedure-summary: Glycine Transporter 1 (GlyT1) uptake assay, scintillation proximity assay of [14C]-glycine uptake
# Assay type: cell-based
# settings: SPA, four parameter logistic fit, read-out: GlyT1 (pIC50) (converted)

- record-smiles: "COc1c(C#N)ccc(C2(F)CCC2)c1C(=O)N1Cc2cn(-c3cncc(F)c3)nc2C1"
  IC50: "0.1 to 1 µM"

`CCS(=O)(=O)c1ccc(O[C@@H](C)C(F)(F)F)c(C(=O)N2Cc3cn(-c4ccc(F)cc4)nc3C2)c1` on GlyT1 (Homo sapiens, UniProt P48067) gives IC50 = < 0.1 µM

`COc1c(C#N)ccc(N2CCC(F)(F)C2)c1C(=O)N1Cc2cn(-c3ccc(F)cc3)nc2C1` on GlyT1 (Homo sapiens, UniProt P48067) gives IC50 = < 0.1 µM

`CCS(=O)(=O)c1ccc(N2CCC(F)(F)CC2)c(C(=O)N2Cc3cn(-c4cc(C)ccc4F)nc3C2)c1` on GlyT1 (Homo sapiens, UniProt P48067) gives IC50 = < 0.1 µM

All values here come from patent US9708334B2.
